These compounds were tested on Dipeptidyl peptidase 2 (Homo sapiens, UniProt Q9UHL4); IC50 is the recorded read-out.

>  <compound>
CCC(C)C(N)C(=O)N(C)C (stereo not drawn)

>  <tested on>
Dipeptidyl peptidase 2 (Homo sapiens, UniProt Q9UHL4)

>  <IC50>
> 1000 µM

$$$$
>  <compound>
NCC(=O)N1CCCC1

>  <tested on>
Dipeptidyl peptidase 2 (Homo sapiens, UniProt Q9UHL4)

>  <IC50>
> 1000 µM

$$$$
>  <compound>
CCC(C)C(N)C(=O)N1CCC(O)C1 (stereo not drawn)

>  <tested on>
Dipeptidyl peptidase 2 (Homo sapiens, UniProt Q9UHL4)

>  <IC50>
299 µM

$$$$
